Values were extracted from patent EP0363874A1.

Test: Water solubility of the supported enzyme
Assay type: physicochemical
Details: papain grafted onto DAS preparations of variable aldehyde titre
Parameter Measured: WATER SOLUBILITY

>  <Molecule>
DAS.2: papain grafted onto starch polyaldehyde (DAS) of aldehyde titre 5.8 x 10⁻³ meq CHO/mg and reduced with sodium borohydride (conjugate, UniProt P00784 134-345, looked up, grafted onto starch polyaldehyde, borohydride-reduced, papain grafted onto starch polyaldehyde (DAS) of aldehyde titre 5.8 x 10⁻³ meq CHO/mg and reduced with sodium borohydride) Papain: IPEYVDWRQKGAVTPVKNQGSCGSCWAFSAVVTIEGIIKIRTGNLNEYSEQELLDCDRRSYGCNGGYPWSALQLVAQYGIHYRNTYPYEGVQRYCRSREKGPYAAKTDGVRQVQPYNEGALLYSIANQPVSVVLEAAGKDFQLYRGGIFVGPCGNKVDHAVAAVGYGPNYILIKNSWGTGWGENGYIRIKRGTGNSYGVCGLYTSSFYPVKN

>  <Result>
YES

$$$$
